- Test system: Escherichia coli IAI1
- Test details: growth (OD595) fold change vs plate DMSO controls (fold change (ratio)); higher = more growth
- Test parameters: 20 µM; incubation time: 27 h, anaerobic, 37 °C
Where a name gives a salt, the structure may show the parent alone.
The reader will find reported growth values listed item by item below.

- Compound: "Cc1cccc(C)c1NC1=NCCCS1"
  growth: 0.985
- Compound: "COCC(C)N(C(=O)CCl)c1c(C)csc1C (configuration not stated)"
  growth: 1.02
- Compound: "NC(=O)CN1CCCC1=O"
  growth: 0.995
- Compound: "CC(Cc1ccccc1)NCCC(c1ccccc1)c1ccccc1 (configuration not stated) [Prenylamine lactate]"
  growth: 0.997
- Compound: "O=C(O)C(F)(F)C(F)(F)C(F)(F)C(F)(F)C(F)(F)C(F)(F)C(F)(F)C(F)(F)F"
  growth: 1
- Compound: "CC(C)(C)NCC(O)c1cc(Cl)c(N)c(Cl)c1 (configuration not stated) [Clenbuterol hydrochloride]"
  growth: 1.02
- Compound: "CC(C)(N)Cc1ccccc1 [Phentermine hydrochloride]"
  growth: 0.981
- Compound: "CCC(COC(=O)c1cc(OC)c(OC)c(OC)c1)(c1ccccc1)N(C)C (configuration not stated)"
  growth: 0.979
- Compound: "CC(C)C[C@H](CN)CC(=O)O"
  growth: 0.982
- Compound: "O=[N+]([O-])/N=C1\\NCCN1Cc1ccc(Cl)nc1"
  growth: 0.975
- Compound: "CC(Cc1ccc(O)cc1)NCC(O)c1cc(O)cc(O)c1 (configuration not stated) [Fenoterol hydrobromide]"
  growth: 1
- Compound: "CCC(=O)O[C@H]1CC[C@H]2[C@@H]3CCC4=CC(=O)CC[C@]4(C)[C@H]3CC[C@]12C [Testosterone propionate]"
  growth: 1.01
- Compound: "CN1[C@@H]2CC[C@H]1C[C@@H](OC(=O)C(CO)c1ccccc1)C2 (some centres not stated) [Atropine sulfate monohydrate]"
  growth: 0.98
- Compound: "C#C[C@]1(O)C=C[C@H]2[C@@H]3CCC4=CC(=O)CC[C@@H]4[C@H]3CC[C@@]21CC"
  growth: 1.02
- Compound: "COP(=O)(OC)OC=C(Cl)Cl"
  growth: 1.03
- Compound: "C=CCC1(CC(C)C)C(=O)NC(=O)NC1=O"
  growth: 1.04
- Compound: "CSc1nc(NC(C)C)nc(NC(C)C)n1"
  growth: 1.01
- Compound: "Cc1cc(C(F)(C(F)(F)F)C(F)(F)F)ccc1NC(=O)c1cccc(I)c1C(=O)NC(C)(C)CS(C)(=O)=O"
  growth: 0.991
- Compound: "C[C@]12Cc3c[nH]nc3C[C@@H]1CC[C@@H]1[C@@H]2CC[C@@]2(C)[C@H]1CC[C@]2(C)O"
  growth: 0.985
- Compound: "CC[C@@H](CO)NC(=O)[C@@H]1C=C2c3cccc4[nH]cc(c34)C[C@H]2N(C)C1 [Methylergometrine maleate]"
  growth: 1.03
- Compound: "Oc1ccc(Cc2ccc(O)cc2)cc1"
  growth: 1.12
- Compound: "CN(C)C(=O)Oc1cc(OC(=O)N(C)C)cc(C(O)CNC(C)(C)C)c1 (configuration not stated) [Bambuterol hydrochloride]"
  growth: 1.03
